test: Volume of distribution in Macaca mulatta (Rhesus monkey) at 4 mg/kg, iv; format: ADME, organism-based; parameters: dose 4 mg/kg, route intravenous; details: in vivo
Attribute measured: Vd (L/kg)

>>> value("CCO[C@@H]1O[C@@H]2O[C@]3(C)CC[C@H]4[C@H](C)CC[C@@H]([C@H]1C)[C@@]24OO3")
4.1
>>> value("CCO[C@H]1O[C@@H]2O[C@@]3(C)CC[C@H]4[C@H](C)CC[C@@H]([C@H]1C)[C@@]24OO3")
8.6

====

assay: Cmax in Homo sapiens (human) at 150 mg; assay type: ADME, organism-based; parameters: dose 150 mg; conditions: in vivo
Below is a list of entries, each paired with its recorded Cmax value.
Attribute measured: Cmax (ng/mL)

>>> value("CCO[C@H]1O[C@@H]2O[C@@]3(C)CC[C@H]4[C@H](C)CC[C@@H]([C@H]1C)[C@@]24OO3 [ARTEMOTIL]")
49.8
>>> value("CCO[C@@H]1O[C@@H]2O[C@]3(C)CC[C@H]4[C@H](C)CC[C@@H]([C@H]1C)[C@@]24OO3 [ALPHA-ARTEETHER]")
60.7

====

experiment: Mean residence time in Rattus norvegicus Sprague-Dawley (rat) at 17.5 mg/kg, administered intramuscularly; assay type: ADME, organism-based; design: dose 17.5 mg/kg, route intramuscular; details: in vivo, im
Below is a list of entries, each paired with its recorded MRT value.
Attribute measured: MRT (h)

>>> value("CCO[C@@H]1O[C@@H]2O[C@]3(C)CC[C@H]4[C@H](C)CC[C@@H]([C@H]1C)[C@@]24OO3 [ALPHA-ARTEETHER]")
23.5
>>> value("CCO[C@H]1O[C@@H]2O[C@@]3(C)CC[C@H]4[C@H](C)CC[C@@H]([C@H]1C)[C@@]24OO3 [ARTEMOTIL]")
33.2

====

assay: AUC (0 to infinity) in Rattus norvegicus Sprague-Dawley (rat) at 30 mg/kg, po; type: ADME, organism-based, Plasma; parameters: time infinity, dose 30 mg/kg, route oral; conditions: Sprague-Dawley, plasma
Attribute measured: AUC(0-inf) (ng·h/mL)

>>> value("CCO[C@H]1O[C@@H]2O[C@@]3(C)CC[C@H]4[C@H](C)CC[C@@H]([C@H]1C)[C@@]24OO3")
25.6

====

test: Tmax in Homo sapiens (human) at 150 mg; assay type: ADME, organism-based; conditions: in vivo
Below is a list of entries, each paired with its recorded Tmax value.
Attribute measured: Tmax

>>> value("CCO[C@@H]1O[C@@H]2O[C@]3(C)CC[C@H]4[C@H](C)CC[C@@H]([C@H]1C)[C@@]24OO3 [ALPHA-ARTEETHER]")
"4.8 min"
>>> value("CCO[C@H]1O[C@@H]2O[C@@]3(C)CC[C@H]4[C@H](C)CC[C@@H]([C@H]1C)[C@@]24OO3 [ARTEMOTIL]")
"6.9 min"

====

assay: AUC (0 to infinity) in Rattus norvegicus Sprague-Dawley (rat) at 9 mg/kg, administered intramuscularly; type: ADME, organism-based, Plasma; set-up: time infinity, dose 9 mg/kg, route intramuscular; conditions: Sprague-Dawley, plasma, im
Attribute measured: AUC(0-inf) (ng·h/mL)

>>> value("CCO[C@H]1O[C@@H]2O[C@@]3(C)CC[C@H]4[C@H](C)CC[C@@H]([C@H]1C)[C@@]24OO3")
1180

====

experiment: Cmax in Rattus norvegicus Sprague-Dawley (rat) at 30 mg/kg, po; type: ADME, organism-based; parameters: dose 30 mg/kg, route oral; conditions: in vivo
Attribute measured: Cmax (ng/mL)

>>> value("CCO[C@H]1O[C@@H]2O[C@@]3(C)CC[C@H]4[C@H](C)CC[C@@H]([C@H]1C)[C@@]24OO3")
8.1
>>> value("CCO[C@@H]1O[C@@H]2O[C@]3(C)CC[C@H]4[C@H](C)CC[C@@H]([C@H]1C)[C@@]24OO3")
103

====

assay: Cmax in Rattus norvegicus Sprague-Dawley (rat) at 30 mg/kg, administered intramuscularly; assay type: ADME, organism-based; design: dose 30 mg/kg, route intramuscular; settings: in vivo, im
Below is a list of entries, each paired with its recorded Cmax value.
Attribute measured: Cmax (ng/mL)

>>> value("CCO[C@@H]1O[C@@H]2O[C@]3(C)CC[C@H]4[C@H](C)CC[C@@H]([C@H]1C)[C@@]24OO3")
93.3
>>> value("CCO[C@H]1O[C@@H]2O[C@@]3(C)CC[C@H]4[C@H](C)CC[C@@H]([C@H]1C)[C@@]24OO3")
27.8

====

assay: AUC (0 to infinity) in Macaca mulatta (Rhesus monkey) at 50 mg/kg, po; assay type: ADME, organism-based, Plasma; parameters: time infinity, dose 50 mg/kg, route oral; settings: plasma
Attribute measured: AUC(0-inf)

>>> value("CCO[C@H]1O[C@@H]2O[C@@]3(C)CC[C@H]4[C@H](C)CC[C@@H]([C@H]1C)[C@@]24OO3")
"8.5 ng·h/mL"

====

test: Clearance in Rattus norvegicus Sprague-Dawley (rat) at 17.5 mg/kg, administered intramuscularly; assay type: ADME, organism-based; parameters: dose 17.5 mg/kg, route intramuscular; settings: Sprague-Dawley, in vivo, im
Attribute measured: CL/F (mL/min/kg)

>>> value("CCO[C@H]1O[C@@H]2O[C@@]3(C)CC[C@H]4[C@H](C)CC[C@@H]([C@H]1C)[C@@]24OO3")
83.3

====

experiment: Elimination half life in Rattus norvegicus Sprague-Dawley (rat) at 9 mg/kg, po; assay type: ADME, organism-based; parameters: dose 9 mg/kg, route oral; conditions: in vivo, read-out: beta t1/2 (converted)
Attribute measured: half-life (h)

>>> value("CCO[C@H]1O[C@@H]2O[C@@]3(C)CC[C@H]4[C@H](C)CC[C@@H]([C@H]1C)[C@@]24OO3 [ARTEMOTIL]")
4.2
>>> value("CCO[C@@H]1O[C@@H]2O[C@]3(C)CC[C@H]4[C@H](C)CC[C@@H]([C@H]1C)[C@@]24OO3 [ALPHA-ARTEETHER]")
2.4

====

experiment: Clearance in Rattus norvegicus Sprague-Dawley (rat) at 9 mg/kg, po; type: ADME, organism-based; set-up: dose 9 mg/kg, route oral; conditions: Sprague-Dawley, in vivo
Attribute measured: CL/F

>>> value("CCO[C@H]1O[C@@H]2O[C@@]3(C)CC[C@H]4[C@H](C)CC[C@@H]([C@H]1C)[C@@]24OO3")
"2120 mL/min/kg"

====

assay: Clearance in Rattus norvegicus Sprague-Dawley (rat) at 17.5 mg/kg, po; assay type: ADME, organism-based; set-up: dose 17.5 mg/kg, route oral; conditions: Sprague-Dawley, in vivo
Attribute measured: CL/F (L/h/kg)

>>> value("CCO[C@H]1O[C@@H]2O[C@@]3(C)CC[C@H]4[C@H](C)CC[C@@H]([C@H]1C)[C@@]24OO3")
304

====

assay: Elimination half life in Rattus norvegicus Sprague-Dawley (rat) at 30 mg/kg, administered intramuscularly; assay type: ADME, organism-based; design: dose 30 mg/kg, route intramuscular; details: in vivo, im, read-out: beta t1/2 (converted)
Below is a list of entries, each paired with its recorded half-life value.
Attribute measured: half-life

>>> value("CCO[C@@H]1O[C@@H]2O[C@]3(C)CC[C@H]4[C@H](C)CC[C@@H]([C@H]1C)[C@@]24OO3")
"11.9 h"
>>> value("CCO[C@H]1O[C@@H]2O[C@@]3(C)CC[C@H]4[C@H](C)CC[C@@H]([C@H]1C)[C@@]24OO3")
"25.2 h"

====

assay: Mean residence time in Macaca mulatta (Rhesus monkey) at 50 mg/kg, po; type: ADME, organism-based; set-up: dose 50 mg/kg, route oral; conditions: in vivo
Below is a list of entries, each paired with its recorded MRT value.
Attribute measured: MRT (h)

>>> value("CCO[C@@H]1O[C@@H]2O[C@]3(C)CC[C@H]4[C@H](C)CC[C@@H]([C@H]1C)[C@@]24OO3 [ALPHA-ARTEETHER]")
3.4
>>> value("CCO[C@H]1O[C@@H]2O[C@@]3(C)CC[C@H]4[C@H](C)CC[C@@H]([C@H]1C)[C@@]24OO3 [ARTEMOTIL]")
5.8

====

Below is a list of entries, each paired with its recorded Vd value.
assay: Volume of distribution in Homo sapiens (human) at 150 mg; format: ADME, organism-based; details: in vivo
Attribute measured: Vd (L/kg)

>>> value("CCO[C@H]1O[C@@H]2O[C@@]3(C)CC[C@H]4[C@H](C)CC[C@@H]([C@H]1C)[C@@]24OO3")
36.2
>>> value("CCO[C@@H]1O[C@@H]2O[C@]3(C)CC[C@H]4[C@H](C)CC[C@@H]([C@H]1C)[C@@]24OO3")
12
